Origin of measurements: patent US20240317689A1

Molecular target: KCNQ2/3 potassium ion channel (Homo sapiens, UniProt O43525+O43526)
Construct: expressed in transfected cells; host or cells: CHO cells (hKCNQ-CHO)
Test: KCNQ2/3 potassium ion channel activation assay (whole-cell patch clamp, hKCNQ-CHO cells)
Format: cell-based
Conditions: test concentration 3 μM, read-out: Enhancment % (current enhancement multiple)
parameter: activation at 3 µM

Q: // query activation at 3 µM value for entry Cc1cc(N2CCCc3cc(OC4CCCC4)c(F)cc3C2)cc(C)c1NC(=O)CC(C)(C)C [Compound 044]
Ans: > 100%

Q: Same read-out for Cc1cc(N2CCCc3cc(OC4CCCC4)ccc3C2)cc(C)c1NC(=O)CC(C)(C)C [Compound 011] ?
Ans: > 100%

Q: For Cc1cc(N2CCCc3cc(F)ccc3C2)c(C)c(C)c1NC(=O)CC(C)(C)C [Compound 030] then?
Ans: 50 to 100%

Q: Proceed to Cc1cc(N2CCCc3cc(OCCCCF)ccc3C2)cc(C)c1NC(=O)CC(C)(C)C [Compound 063]
Ans: > 100%

Q: Try Cc1cc(N2CCCc3cc(OC45CC(C(F)F)(C4)C5)ccc3C2)cc(C)c1NC(=O)CC(C)(C)C [Compound 051] next.
Ans: > 100%

Q: And Cc1cc(N2CCS(=O)(=O)c3cc(F)ccc3C2)cc(C)c1NC(=O)CC(C)(C)C [Compound 026] ?
Ans: > 100%

Q: What about Cc1cc(N2CCCc3cc(OCCCC(F)(F)F)ccc3C2)cc(C)c1NC(=O)CC(C)(C)C [Compound 060] ?
Ans: > 100%

Q: Now try Cc1cc(N2CCCc3cc(O[C@H](C)C(F)(F)F)c(F)cc3C2)cc(C)c1NC(=O)CC(C)(C)C [Compound 037] .
Ans: > 100%

Q: # iterate: COc1cc2c(cc1F)CN(c1cc(C)c(NC(=O)CC(C)(C)C)c(C)c1)CCC2 [Compound 038]
Ans: > 100%

Q: Ok, now Cc1cc(N2CCCc3cc(F)c(F)cc3C2)c(Cl)c(C)c1NC(=O)CC(C)(C)C [Compound 048]
Ans: > 100%

Q: Subsequent entry: Cc1cc(N2CCCc3cc(O[C@@H](C)C(F)(F)F)c(F)cc3C2)cc(C)c1NC(=O)CC(C)(C)C [Compound 036]
Ans: > 100%

Q: Item: Cc1cc(N2CCN(C)c3cc(F)ccc3C2)cc(C)c1NC(=O)CC(C)(C)C [Compound 024]
Ans: 50 to 100%

Q: Okay, and Cc1cc(N2CCC3(CC3)c3cc(F)c(F)cc3C2)cc(C)c1NC(=O)CC(C)(C)C [Compound 049] ?
Ans: > 100%

Q: Same question, Cc1cc(N2CCCc3cc(OCCOCC(F)(F)F)ccc3C2)cc(C)c1NC(=O)CC(C)(C)C [Compound 056] this time
Ans: > 100%

Q: Also CCC(C)Oc1cc2c(cc1F)CN(c1cc(C)c(NC(=O)CC(C)(C)C)c(C)c1)CCC2 (centres unmarked) [Compound 039] ?
Ans: > 100%

Q: Do the same for Cc1cc(N2CCCc3cc(OC(F)(F)F)ccc3C2)cc(C)c1NC(=O)CC(C)(C)C [Compound 006] please
Ans: > 100%

Q: And then Cc1cc(N2CCCc3cc(F)ccc3C2)c(Cl)c(C)c1NC(=O)CC(C)(C)C [Compound 031] , what is it?
Ans: > 100%

Q: Same question, Cc1cc(N2CCCc3cc(OCC(F)(F)CC(F)(F)F)ccc3C2)cc(C)c1NC(=O)CC(C)(C)C [Compound 062] this time
Ans: > 100%

Q: Would you kindly repeat that for Cc1cc(N2CCCc3cc(OC(C)C)ccc3C2)cc(C)c1NC(=O)CC(C)(C)C [Compound 003] ?
Ans: 50 to 100%

Q: What do you get for Cc1cc(N2CCNc3cc(F)ccc3C2)cc(C)c1NC(=O)CC(C)(C)C [Compound 023] ?
Ans: > 100%

Q: Same thing, different compound: CCOc1ccc2c(c1)CCCN(c1cc(C)c(NC(=O)CC(C)(C)C)c(C)c1)C2 [Compound 002]
Ans: 50 to 100%

Q: Further, for Cc1cc(N2CCCc3cc(OC4COC4)ccc3C2)cc(C)c1NC(=O)CC(C)(C)C [Compound 013] ?
Ans: > 100%

Q: // same read-out, input: Cc1cc(N2CCCc3cc(OC/C=C/C(F)(F)F)ccc3C2)cc(C)c1NC(=O)CC(C)(C)C [Compound 050]
Ans: > 100%
